Values were extracted from the DeepSol protein solubility set.

- experiment: soluble on expression in E. coli; label from the status in PepcDB or PDB records

| biosequence | soluble on expression in E. coli |
| --- | --- |
| MGSDKIHHHHHHMSDQRYNLRGVSASKEDVHNAIKNIDKGIFPKAFCKIIPDILGGDPEYCNIMHADGAGTKSSLAYMYWKETGDLSVWKGIAQDALIMNIDDLLCVGAVDNILVSSTIGRNKLLVPGEVISAIINGTDELLAELREMGVGCYATGGETADVGDLVRTIIVDSTVTCRMKRSDVIDNKNIQGGDVIVGLASSGQATYEKEYNGGMGSNGLTSARHDVFSKYLAKKYPESYDAAVPKELVYSGGLKLTDKIEELGIDAGKMVLSPTRTYAPVIKVLLDKLRSQIHGMVHCSGGAQTKVMHFVENKRVTKDNLFPIPPLFRTIQEQSGTDWSEMYKVFNMGHRMEIYIAPEHAEEVIGISKSFGIDAQIVGFVEEADKNELIIESEKGRFTY | not soluble |
| MKTGDKQFAVIGLGRFGLAVCKELQDSGSQVLAVDINEDRVKEAAGFVSQAIVANCTHEETVAELKLDDYDMVMIAIGADVNASILATLIAKEAGVKSVWVKANDRFQARVLQKIGADHIIMPERDMGIRVARKMLDKRVLEFHPLGSGLAMTEFVVGSRLMGKTLSDLALCKVEGVQVLGFKRGPEIIKAPDMSTTLEIGDLIIVVGPQDKLANKLKSLLEHHHHHH | not soluble |
| KDEIGVIGIDDAPFNKFDKEALIVGTYMRGNKLVDEISFKKIEKDGFDSTEKILKIVKDKHFTKINAIFLDGVTFGGFNIADIVKIYNETKIPVIAVMEKEPDLLKMKSALKKYFFDFPEKIEMLESFPKPEPFENIFIQCIGISFEDACKLIKKTRLRSKIPECLRISHLVGRGFLNME | not soluble |
| MSSPARQYRGRSSEQRAAERRARLLEAGLQVFGTVGGEKATMTAICAEAKLTERYFYESFRDRDDLLVQVIEGIAAEIAEAARVTLQTVTGDPEVRARAAIATFVDILTADPRKGRVSIIESAAAEPLRTRRRELLRAFALLVAEESKELYGDRAWSSPQDEITALLFVGGLAELMTAWLNGEIEVSPEQIVDAATYQFTSTAHR | not soluble |
| MDAHQIISFIQNSKKATPVKVYLKGDLEKIDFPSDVKTFITGNAGTIFGEWAVVEPLLEANKANIEDYVIENDRRNSAIPLLDMKNI | not soluble |
| MKNIKDEWVQIALDLTSGLSSKDRFERLLSTIRNALKCDASALLLFKNQYFSPLATNGLDGDVIGRRFAISQHPRLEAIARAGDIVRFPSDSDLPDPYDGLIANEERQLQVHSCIGLPLLVNERLIGAVTIDAFDPTQFDSFTNKELRIISALAATSLHTALLMERLENQS | not soluble |

====

- experiment: soluble on expression in E. coli; label from the status in PepcDB or PDB records

| biosequence | soluble on expression in E. coli |
| --- | --- |
| SLDSIELMAKIHASARWSEAALQILADETRRILKHEAGTRAGEDPEQLHQMRVGIRRLRSALRLFEPALKLPKPARRRSLSPLAAVLGSVRDLDVQMEMLRERYLGALPEGEQQALERLLAHLESLRTQARSAMLRYLDGLDYEQFKSAYTEFLESPKFRRGADESLYHLLPAFLREALSTLWAHPGWEEPDVETMHDLRIAVKRVRYNLEFFLGCYGKAVRSLHGELKRIQEELGIIHDCDVLLGQLHTEPLGPATPWQQPFSRLTALVRNERRNAVRRFRRLKTRLLSEDMRNSLAVWVSWPGTADD | soluble |
| MRKIGLLFITIFCLLACKNNSSRISLEGEIKGLTNDTLYLYGTDALYDRIDTIYAEKGKFSYNLNIDSTVIDTLTTAVLLINGHVEYPVFLDKGNQITIKGNIDDLSYLDINGNEPNTSLSLFMKEQRGLGSASDKMMQEKAETFIRQHNSSLASVYLLDKYFVQTPQPDYIKIKEITEAMTGALLDRPYIENISDYIDQLEKVTVGKSAPYFSLPNEKGEKLSRSAERFRNRYLLLNFWASWCDPQPEANAELKRLNKEYKKNKNFAMLGISLDIDREAWETAIKKDTLSWDQVCDFTGLSSETAKQYAILTLPTNILLSPTGKILARDIQGEALTGKLKELLKTEEKKTGKSIR | not soluble |
| MNKMLYGWLLAACCGLPPAFAGDSVDVLAQPALHGPQALRAVLQDVARADARLVAVGERGVVLLSDDNGATWRQATAVPVGVSLTAVQFIDARNGWAVGHAGVVLHSQDGGEHWSVQLDGKRAAALEVQAAEAAADERRLAAAQRLLADGADKPLLALNFTDARNGLVVGAYGVAMRTDDGGRSWQSEIGRLPNGRGLHLYALARQGNQVYIAGEQGLLLRSRDGGEHYEALHGPYDGSYFAATVLPDGRLLLGGLRGSLFASDDGGDSFQALANPTPASINGLRVAGGQLLLANQAGMLLRSGLGAFAAQPVAVSDGLPLTAATTAADGSIVAVGMAGARRLEPSSLEHHHHHH | not soluble |
| MHKRATSPLSAARTRRKPHGWKKREDDGVGGRFLSIGECMVELSQAGNGLLRKGFAGDTFNAAWYARACLPQDWSVDYFTALGDDPLSEDMLAFIAEAGIGTEKIRRIKGGTPGLYLINLKDGERTFSYWRNAAAARQLAADADHLRKTVESADVVYFSGITLAILASAHDVDTFLAELRRARAAGKLVVFDPNIRPRLWADRDVMLETISNGARAATLVMPSFDDEASHFGDVSVEATIARYRSLGVENIVVKDGAKGATLDFGGSRSHAPAEKAVDVVDTTSAGDSFNGAFLARYVTGSSPEEAATFAARAAATVIGHHGALISPELLPLVG | not soluble |
| MDLSVTHMDDLKTVMEDWKNELLVYKFALDALDTKFSIISQEYNLIHGHNPIEHTKSRVKSFESIVNKLMRKGCEITTKEMKEHIHDIAGVRIICSFISDIYNVVNVLKQHEDLRIVKVKDYIQTPKPNGYRSLHLIIEMPVNLTNRVEYVKAEIQIRTIAMDFWASLEHKIYYKLNNDVPKQLTDELKEAAEIAHYLDEKMLGIKKEVD | not soluble |
| MGSDKIHHHHHHMAAINAAVLQALRTMVRSEFQNALTKTESLYLKIASVVPSNTKSNTYGWLGSMPTMREWIGARVINSIKEHGYSITNRTFETTIGICRDDVEDEVIGTYKPMVQALAQEGEEFPDDLVFELLADGFSTLCYDGQNFFDTDHPVNEKHDGTGDNVSVANMALDAAYTGEPWFLLDTTRPLKPVIFQERRKLDLNTLFNPTDPAVWTNNEFQFGTDMRCEAGFGFWQMAFANKRALNADNLWDTIEKMKAFKRDGGKKLKIRPSLLVVPSSLEQAATKLLTRELIDENGTTVENELKGKVELLVVPQL | not soluble |
| MVELTPAAIQELERLQTHGVRRGQAAILRIQVQPSECGDWRYDLALVAEPKPTDLLTQSQGWTIAIAAEAAELLRGLRVDYIEDLMGGAFRFHNPNASQTCGCGMAFRVSRS | soluble |
| MRGSHHHHHHGSPYNVMIVDDAAMMRLYIASFIKTLPDFKVVAQAANGQEALDKLAAQPNVDLILLDIEMPVMDGMEFLRHAKLKTRAKICMLSSVAVSGSPHAARARELGADGVVAKPSGTVSHDLEEKTGGELARTMRTLMAA | soluble |
| MKKVFDVWDVETAKRFLEVIRNETIYYPVLIALHTGMRAGEIVSLKWYDVNFEARIISVVKSVRNNRGLKTSDVKTKTSKRSVYINDVLFSELKNLYETIKPKPDDFVCPRLPTGNLTVGYLSKRFKLLVKRYNFPVIRFHDLRHTFATLMLSLGVNTKIVAEILGHSDIKLTADTYSHVLPTMQESAMKEFSKLWKLEHHHHHH | not soluble |
| NGQIMYRIVTVQDSTERLESQSALRESEERFRSVVESAPDAIFIQTGGRFAYLNHSAIALFGASKAEEILGRRVADQIHPDYRDLVAERIRLLNERQ | not soluble |
| GPLGSETITVPTPIKQIFSDDAFAETIKDNLKKKSVTDAVTQNELNSIDQIIANNSDIKSVQGIQYLPNVTKLFLNGNKLTDIKPLANLKNLGWLFLDENKVKDLSSLKDLKKLKSLSLEHNGISDINGLVHLPQLESLYLGNNKITDITVLSRLTKLDTLSLEDNQISDIVPLAGLTKLQNLYLSKNHISDLRALAGLKNLDVLELFSQECLNKPINHQSNLVVPNTVKNTDGSLVTPEIISDDGDYEKPNVKWHLPEFTNEVSFIFYQPVTIGKAKARFHGRVTQPLKE | soluble |
